method_summary: Pharmacokinetics, plasma and brain concentrations in wild type mice
Assay type: in vivo
stated_conditions: mouse, ip; dosage 20 mg/Kg, single intraperitoneal injection, wild type mice; time of maximum concentration in brain
readout_kind: Tmax (min)

chem_smiles=CCCc1nn(C)c2c(=O)[nH]c(-c3cc(Cc4ccc(C(=O)NO)cc4)ccc3OCC)nc12 readout_kind=Tmax recorded_number=15
chem_smiles=CCCc1nn(C)c2c(=O)[nH]c(-c3cc(S(=O)(=O)N4CCN(c5ncc(C(=O)NO)cn5)CC4)ccc3OCC)nc12 readout_kind=Tmax recorded_number=15
chem_smiles=CCCc1nn(C)c2c(=O)[nH]c(-c3cc(Cc4ccc(C(=O)NO)s4)ccc3OCC)nc12 readout_kind=Tmax recorded_number=30

---

assay_system: HDAC6 (Homo sapiens, UniProt Q9UBN7)
Construct: BC069243; Cat. #50006) is full-length with N-terminal GST tag; GST (N); purchased BPS Biosciences 50006; host or cells: baculovirus infected Sf9 cells
Sequence (Q9UBN7 1-1215): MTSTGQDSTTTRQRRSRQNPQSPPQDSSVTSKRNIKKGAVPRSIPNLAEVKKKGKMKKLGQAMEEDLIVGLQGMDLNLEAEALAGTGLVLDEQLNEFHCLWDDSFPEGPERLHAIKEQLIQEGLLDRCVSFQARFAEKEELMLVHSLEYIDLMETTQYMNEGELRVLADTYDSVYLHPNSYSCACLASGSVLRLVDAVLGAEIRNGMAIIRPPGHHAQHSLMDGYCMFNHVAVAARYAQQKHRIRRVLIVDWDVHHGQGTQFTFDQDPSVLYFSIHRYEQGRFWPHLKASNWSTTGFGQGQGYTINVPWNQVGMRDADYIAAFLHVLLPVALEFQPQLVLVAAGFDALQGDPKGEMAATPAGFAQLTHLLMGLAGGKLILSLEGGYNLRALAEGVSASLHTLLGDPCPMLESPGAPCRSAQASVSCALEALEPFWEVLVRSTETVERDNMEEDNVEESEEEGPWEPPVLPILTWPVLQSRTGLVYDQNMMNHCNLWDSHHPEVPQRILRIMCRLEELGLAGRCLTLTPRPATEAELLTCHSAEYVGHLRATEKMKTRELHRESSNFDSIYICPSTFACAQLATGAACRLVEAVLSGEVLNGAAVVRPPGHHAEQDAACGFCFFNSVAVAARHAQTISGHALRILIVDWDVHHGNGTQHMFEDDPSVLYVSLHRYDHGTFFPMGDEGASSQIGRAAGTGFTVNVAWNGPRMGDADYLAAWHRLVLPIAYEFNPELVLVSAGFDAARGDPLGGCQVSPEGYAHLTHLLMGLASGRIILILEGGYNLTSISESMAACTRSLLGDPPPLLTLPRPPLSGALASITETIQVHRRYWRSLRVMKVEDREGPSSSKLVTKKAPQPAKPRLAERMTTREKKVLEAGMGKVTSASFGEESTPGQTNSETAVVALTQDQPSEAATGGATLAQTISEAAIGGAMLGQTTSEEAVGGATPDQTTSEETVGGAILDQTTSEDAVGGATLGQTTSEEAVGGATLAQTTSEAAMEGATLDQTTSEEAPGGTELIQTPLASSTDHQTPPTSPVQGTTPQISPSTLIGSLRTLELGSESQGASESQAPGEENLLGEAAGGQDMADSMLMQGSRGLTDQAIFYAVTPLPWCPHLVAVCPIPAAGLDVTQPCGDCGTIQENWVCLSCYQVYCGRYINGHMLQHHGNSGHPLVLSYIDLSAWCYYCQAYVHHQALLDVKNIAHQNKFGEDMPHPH
method_summary: HDAC enzyme activity assay (fluorogenic substrate), HDAC6
Format: biochemical
stated_conditions: comparative examples; inactive; read-out: HDAC6 IC50
pIC50: −log10 of the molar value.
readout_kind: pIC50

molecule="CCCc1nc(C)c2c(=O)[nH]c(-c3cc(S(=O)(=O)N(C)CC(=O)N(C)OC)ccc3OCC)nn12 [Comparative Example 2-01, reference compound]" result="< 4.70"
molecule="CCCc1nc(C)c2c(=O)[nH]c(-c3cc(CC4CC(C(=O)N(C)OC)C4)ccc3OCC)nn12 (centres unmarked) [Comparative Example 2-02, reference compound]" result="< 4.70"

---

assay_system: HDAC1 (Homo sapiens, UniProt Q13547)
Sequence (Q13547 whole entry): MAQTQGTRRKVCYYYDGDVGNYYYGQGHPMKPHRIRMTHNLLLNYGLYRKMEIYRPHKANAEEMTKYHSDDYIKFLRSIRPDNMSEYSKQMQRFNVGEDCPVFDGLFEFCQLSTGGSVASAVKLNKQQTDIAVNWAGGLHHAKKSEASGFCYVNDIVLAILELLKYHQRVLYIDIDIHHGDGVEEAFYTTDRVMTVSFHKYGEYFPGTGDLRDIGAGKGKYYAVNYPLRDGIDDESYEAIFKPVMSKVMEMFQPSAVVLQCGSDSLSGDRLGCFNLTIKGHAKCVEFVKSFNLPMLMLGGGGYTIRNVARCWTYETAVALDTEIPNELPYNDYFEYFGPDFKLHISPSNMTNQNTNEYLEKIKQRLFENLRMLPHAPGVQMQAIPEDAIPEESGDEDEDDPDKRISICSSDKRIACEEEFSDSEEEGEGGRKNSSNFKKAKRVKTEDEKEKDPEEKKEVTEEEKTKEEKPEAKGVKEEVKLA
method_summary: HDAC enzyme activity assay (fluorogenic substrate), HDAC1
Assay type: biochemical
stated_conditions: recombinant enzyme; read-out: HDAC1 inhibition (IC50)
readout_kind: IC50

compound=COc1ccc(N(CCCCCCC(=O)NO)C(=O)c2c(Cl)cncc2Cl)cc1OC1CCCC1 result="0.01 to 1 µM"
compound=CCCc1nn(C)c2c(=O)[nH]c(-c3cc(S(=O)(=O)N4CCC(CCC(=O)NO)CC4)ccc3OCC)nc12 result="> 10 µM"
compound=CCCc1nn(C)c2c(=O)[nH]c(-c3cc(CC4CCN(C(=O)NO)CC4)ccc3OCC)nc12 result="> 10 µM"
compound="CCCc1nn(C)c2c(=O)[nH]c(-c3cc(CC4CCC(CC(=O)NO)CC4)ccc3OCC)nc12 (racemic)" result="1 to 10 µM"
compound=CCCc1nn(C)c2c(=O)[nH]c(-c3cc(N4CCC(CCC(=O)NO)CC4)ccc3OCC)nc12 result="0.01 to 1 µM"
compound="CCCc1nn(C)c2c(=O)[nH]c(-c3cc(C4CC(C(=O)NO)C4)ccc3OCC)nc12 (stereo not shown) [Example 1-85]" result="1 to 10 µM"
compound=CCCc1nn(C)c2c(=O)[nH]c(-c3cc(Cc4ccc(C(=O)NO)cc4)ccc3OCC)nc12 result="0.01 to 1 µM"
compound=CCCc1nn(C)c2c(=O)[nH]c(-c3cc(Cc4ccc(C(=O)NO)s4)ccc3OCC)nc12 result="0.01 to 1 µM"
compound=CCCc1nn(C)c2c(=O)[nH]c(-c3cc(S(=O)(=O)N4CCN(c5ncc(C(=O)NO)cn5)CC4)ccc3OCC)nc12 result="< 0.01 µM"
compound="CCCc1nn(C)c2c(=O)[nH]c(-c3cc(C4CCC(CC(=O)NO)CC4)ccc3OCC)nc12 (stereo not shown)" result="1 to 10 µM"
compound="CC(c1nc2c(cnn2C2CCOCC2)c(=O)[nH]1)N1CC(Oc2ccc(-c3ccc(C(=O)NO)cc3)cc2)C1 (stereo not shown)" result="1 to 10 µM"
compound="C[C@@H]1CN(Cc2cnc(N3CCC(C(=O)NO)CC3)nc2)C[C@H]1c1nc2c(cnn2C2CCOCC2)c(=O)[nH]1 (racemic)" result="1 to 10 µM"
compound=CCCc1nn(C)c2c(=O)[nH]c(-c3cc(N(C)C4CCN(c5ncc(C(=O)NO)cn5)CC4)ccc3OCC)nc12 result="0.01 to 1 µM"
compound=O=C(/C=C/c1ccc(CN2CCC(N3CC(=O)N4[C@H](c5ccc6c(c5)OCO6)c5[nH]c6ccccc6c5C[C@@H]4C3=O)CC2)cc1)NO result="0.01 to 1 µM"
compound="CCCc1nn(C)c2c(=O)[nH]c(-c3cc(CC4CC(C(=O)NO)C4)ccc3OCC)nc12 (racemic) [Example 1-19]" result="0.01 to 1 µM"
compound=CCCc1nc(C)c2c(=O)[nH]c(-c3cc(S(=O)(=O)N4CCN(Cc5ccc(/C=C/C(=O)NO)cc5)CC4)ccc3OCC)nn12 result="1 to 10 µM"
compound=O=C(NO)c1cnc(N2CCC(CN3CC(=O)N4[C@H](c5ccc6c(c5)OCO6)c5[nH]c6ccccc6c5C[C@@H]4C3=O)CC2)nc1 result="0.01 to 1 µM"
compound="CCCc1nn(C)c2c(=O)[nH]c(-c3cc(C4CCC(C(=O)NO)CC4)ccc3OCC)nc12 (stereo not shown) [Example 1-40]" result="1 to 10 µM"
compound=CCCc1nn(C)c2c(=O)[nH]c(-c3cc(NCC4CCN(c5ncc(C(=O)NO)cn5)CC4)ccc3OCC)nc12 result="0.01 to 1 µM"
compound="C[C@@H]1CN(Cc2ncc(-c3ccc(C(=O)NO)cc3)cn2)C[C@H]1c1nc2c(cnn2C2CCOCC2)c(=O)[nH]1 (racemic)" result="0.01 to 1 µM"
compound="CCCc1nn(C)c2c(=O)[nH]c(-c3cc(C4CC(C(=O)NO)C4)ccc3OCC)nc12 (stereo not shown) [Example 1-84]" result="0.01 to 1 µM"
compound="CCCc1nn(C)c2c(=O)[nH]c(-c3cc(OC4CCC(C(=O)NO)CC4)ccc3OCC)nc12 (stereo not shown)" result="1 to 10 µM"
compound=CCCc1nn(C)c2c(=O)[nH]c(-c3cc(Cc4ccc(CC(=O)NO)cc4)ccc3OCC)nc12 result="> 10 µM"
compound=CCCc1nn(C)c2c(=O)[nH]c(-c3cc(NCCC(=O)NO)ccc3OCC)nc12 result="1 to 10 µM"
compound=CCCc1nn(C)c2c(=O)[nH]c(-c3cc(N4CCC(C(=O)NO)CC4)ccc3OCC)nc12 result="1 to 10 µM"
compound=CCCc1nc(C)c2c(=O)[nH]c(-c3cc(S(=O)(=O)Nc4ccc(/C=C/C(=O)NO)cc4)ccc3OCC)nn12 result="0.01 to 1 µM"
compound=CCCc1nn(C)c2c(=O)[nH]c(-c3cc(OCC4CCN(c5ncc(C(=O)NO)cn5)CC4)ccc3OCC)nc12 result="0.01 to 1 µM"
compound=O=C(/C=C/c1ccc(N2CC(=O)N3[C@H](c4ccc5c(c4)OCO5)c4[nH]c5ccccc5c4C[C@@H]3C2=O)cc1)NO result="> 10 µM"

Each recorded value in this set is attributed to patent US9573956B2.
